Entry source: paper PMC10397247

- SYSTEM NAME: T1, 4H3858-bN
- T1 chain: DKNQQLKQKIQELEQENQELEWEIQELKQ
- ASSAY NOTES: two-hybrid library CCNG1;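 also: natural log of median RNA to DNA barcode read ratio; higher means stronger binding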
MEASURED PARAMETER: interaction score

Consider the following illustrative entries.
BINDER	MEASURED PARAMETER	READOUT VALUE
DKNQQLKQKIQELEQENQELEWEIQELKQ [4H3858-bN]	interaction score	-0.115
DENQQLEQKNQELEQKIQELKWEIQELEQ [4H1449-bN]	interaction score	-0.776

P. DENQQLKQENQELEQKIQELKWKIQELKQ [4H1710-bN]
Q. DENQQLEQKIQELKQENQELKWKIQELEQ [4H1373-bN]
Input: Given the two records P and Q , choose the one whose interaction score value is lower. In your reply, give the label of the chosen option.
Output: P
